B1: KLHL20 (parent)
chain: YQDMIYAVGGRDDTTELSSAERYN

variants of: B1; test: protein stability index of a GFP-peptide fusion (GPS, HEK-293T) (PSI 1-6); higher = more stable; conditions: c terminus: a fixed tail appended;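 further: lentivirally expressed fusions sorted by FACS into six bins by GFP to DsRed ratio, PSI derived from sequencing read proportions per bin multiplied by bin number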
// map protein stability index onto a label; ranges lower band (below 2), central band (2 to below 3), upper band (3 or more)

[
  {
    "SEQUENCE_ENTRY": "YQDMIKAVGGRDDTTELSSAERYN",
    "QUALITATIVE_LABEL": "upper band"
  },
  {
    "SEQUENCE_ENTRY": "YQDMIYAVGGRDDTTELSSTERYN",
    "QUALITATIVE_LABEL": "central band"
  },
  {
    "SEQUENCE_ENTRY": "YQDMIYAVGGRDDTTELSSDERYN",
    "QUALITATIVE_LABEL": "central band"
  },
  {
    "SEQUENCE_ENTRY": "YQDMDYAVGGRDDTTELSSAERYN",
    "QUALITATIVE_LABEL": "upper band"
  },
  {
    "SEQUENCE_ENTRY": "YQDMIYAVGGRDDTTESSSAERYN",
    "QUALITATIVE_LABEL": "central band"
  },
  {
    "SEQUENCE_ENTRY": "YQDMIYAVGGRDDTTELSSNERYN",
    "QUALITATIVE_LABEL": "central band"
  },
  {
    "SEQUENCE_ENTRY": "YQDMIYAVGGRDDTWELSSAERYN",
    "QUALITATIVE_LABEL": "lower band"
  },
  {
    "SEQUENCE_ENTRY": "YQDMIYAVGGRDDTTELKSAERYN",
    "QUALITATIVE_LABEL": "central band"
  },
  {
    "SEQUENCE_ENTRY": "YQDMIYAVGGRDDTTELSSAERKN",
    "QUALITATIVE_LABEL": "central band"
  },
  {
    "SEQUENCE_ENTRY": "YQDMIYAVGGRDDTTELSSVERYN",
    "QUALITATIVE_LABEL": "central band"
  },
  {
    "SEQUENCE_ENTRY": "YQDMIYAVGGRDDTIELSSAERYN",
    "QUALITATIVE_LABEL": "central band"
  },
  {
    "SEQUENCE_ENTRY": "YQDMIYAVGGRDDTTELSYAERYN",
    "QUALITATIVE_LABEL": "lower band"
  },
  {
    "SEQUENCE_ENTRY": "YQDMIYAVGGRDDTTVLSSAERYN",
    "QUALITATIVE_LABEL": "central band"
  },
  {
    "SEQUENCE_ENTRY": "YQDMIYAVGGRDDTTELSSAERTN",
    "QUALITATIVE_LABEL": "central band"
  },
  {
    "SEQUENCE_ENTRY": "YQDMIYAVGGRDDTTELSSHERYN",
    "QUALITATIVE_LABEL": "central band"
  },
  {
    "SEQUENCE_ENTRY": "YQDMIYAVGGRDDTTELSSAERYM",
    "QUALITATIVE_LABEL": "central band"
  },
  {
    "SEQUENCE_ENTRY": "YQDMIYAVGGRDDTCELSSAERYN",
    "QUALITATIVE_LABEL": "central band"
  },
  {
    "SEQUENCE_ENTRY": "YQDMFYAVGGRDDTTELSSAERYN",
    "QUALITATIVE_LABEL": "lower band"
  },
  {
    "SEQUENCE_ENTRY": "YQDMIYAVGGRWDTTELSSAERYN",
    "QUALITATIVE_LABEL": "lower band"
  },
  {
    "SEQUENCE_ENTRY": "YQDMIEAVGGRDDTTELSSAERYN",
    "QUALITATIVE_LABEL": "upper band"
  },
  {
    "SEQUENCE_ENTRY": "YQDMWYAVGGRDDTTELSSAERYN",
    "QUALITATIVE_LABEL": "central band"
  },
  {
    "SEQUENCE_ENTRY": "YQDMIYAVGGYDDTTELSSAERYN",
    "QUALITATIVE_LABEL": "lower band"
  },
  {
    "SEQUENCE_ENTRY": "YQDMIYAVGGRDDTPELSSAERYN",
    "QUALITATIVE_LABEL": "central band"
  },
  {
    "SEQUENCE_ENTRY": "YQDMIYAVGMRDDTTELSSAERYN",
    "QUALITATIVE_LABEL": "lower band"
  },
  {
    "SEQUENCE_ENTRY": "YQDMIYAVGGRDDTTELSKAERYN",
    "QUALITATIVE_LABEL": "central band"
  },
  {
    "SEQUENCE_ENTRY": "YQDMIYAVGGRDDTTELSCAERYN",
    "QUALITATIVE_LABEL": "central band"
  },
  {
    "SEQUENCE_ENTRY": "YQDMIYAVGGRDDTTELMSAERYN",
    "QUALITATIVE_LABEL": "central band"
  },
  {
    "SEQUENCE_ENTRY": "WQDMIYAVGGRDDTTELSSAERYN",
    "QUALITATIVE_LABEL": "central band"
  },
  {
    "SEQUENCE_ENTRY": "YSDMIYAVGGRDDTTELSSAERYN",
    "QUALITATIVE_LABEL": "upper band"
  },
  {
    "SEQUENCE_ENTRY": "NQDMIYAVGGRDDTTELSSAERYN",
    "QUALITATIVE_LABEL": "upper band"
  },
  {
    "SEQUENCE_ENTRY": "YQDMIYAVGGRDWTTELSSAERYN",
    "QUALITATIVE_LABEL": "lower band"
  },
  {
    "SEQUENCE_ENTRY": "HQDMIYAVGGRDDTTELSSAERYN",
    "QUALITATIVE_LABEL": "upper band"
  }
]
